- Tested on: DIV17
- method.notes: qHTS profiling for inhibitors of Plasmodium falciparum proliferation (AID 504749); note: nearly all actives have a fitted effect of over 60% in size; note: potency is the fitted concentration of half-maximal effect
- protocol.conditions: P. falciparum in erythrocytes, SYBR Green DNA, 72 h; series mostly up to 28.7 µM
- Experimental: NIH National Institute of Allergy and Infectious Diseases [NIAID] NIH Chemical Genomics Center [NCGC] […] Because mature erythrocytes lack DNA, only Plasmodium-derived DNA is detected. NCGC Assay Protocol Summary: The SYBR Green viability assay was adapted from a method described previously (Plouffe et al., 2008). […] The following morning, fluorescence intensity at 485(14) nm excitation and 535(25) nm emission wavelengths was measured on an EnVision (Perkin Elmer) plate reader. […]
Records with an inconclusive call do not appear. The source made the active and inactive calls. Calls come from the whole dose curve; as a rule, active = well fitted inhibition curve with a large enough effect; inconclusive = small, poorly fitted or top-dose-only effect; inactive = flat fitted curve, though single readings scatter.
readout.name: Potency

C=CC[C@@H]1/C=C(\C)C[C@H](C)C[C@H](OC)[C@H]2O[C@@](O)(C(=O)C(=O)N3CCCC[C@H]3C(=O)O[C@H](/C(C)=C/[C@@H]3CC[C@@H](O)[C@H](OC)C3)[C@H](C)[C@@H](O)CC1=O)[C@H](C)C[C@@H]2OC : 1690 nM (active)
CCCC(=O)O : inactive
O=C(O)CCCC/C=C(\c1ccccc1)c1cccnc1 : inactive
O[C@@H]([C@H](O)[C@H](O)CBr)[C@H](O)CBr : inactive
CCCOC(=O)c1ccccc1O : inactive
C=C1C(CCl)(CCl)C2(Cl)C(Cl)C(Cl)C1(Cl)C2(Cl)Cl (stereo not given) : 1900 nM (active)
O=S(=O)(O)CC(S)CS (stereo not given) : inactive
CCCCCCCCCC(=O)NO : inactive
CCN(CC)CCOc1ccc2nc(N(C)C)sc2c1 : inactive
C/C=C/C=C/C(=O)O : inactive

* * *

- method.notes: qHTS assay for small molecule activators of the nuclear factor-kappa B (NF-kB) signaling pathway (AID 651749); note: % of control where 0% means no effect
- protocol.conditions: NF-kB-bla ME-180 cells, beta-lactamase FRET ratio, 16 h; active compounds read high
Results filed as inconclusive are left out.
Quick reference: activation of the listed items.
readout.name: activation (%)

Nc1nccs1 : 0.221
NCCO/C=C/[C@H](N)C(=O)O : -5.26
CC(C)CCC[C@@H](C)[C@H]1CC[C@H]2[C@@H]3CC=C4C[C@@H](O)CC[C@]4(C)[C@H]3CC[C@]12C : 0.0919
CO[C@@H]1[C@H](OC(=O)/C=C/C=C/C=C/C=C/C(=O)O)CC[C@]2(CO2)[C@H]1[C@@]1(C)O[C@@H]1CC=C(C)C : -0.892
Nc1ccc(N=Nc2ccccc2)c(N)n1 : -0.825
OCc1ccccc1 : 0.143
Oc1cccc(O)c1O : 2.45
CCCCCCCCCCCCCCCCCC(=O)OC[C@@H](O)[C@H]1OC[C@H](O)[C@H]1O : -0.074

* * *

- Test system: CP335
- method.notes: qHTS profiling for inhibitors of Plasmodium falciparum proliferation (AID 504749); note: nearly all actives have a fitted effect of over 60% in size
- protocol.conditions: P. falciparum in erythrocytes, SYBR Green DNA, 72 h; series mostly up to 28.7 µM
Results filed as inconclusive are left out. Activity calls are given as the source filed them. Calls come from the whole dose curve; as a rule, active = well fitted inhibition curve with a large enough effect; inconclusive = small, poorly fitted or top-dose-only effect; inactive = flat fitted curve, though single readings scatter.
Classes used: active, inactive

C[C@H]1O[C@@H](O[C@H]2[C@@H](O)C[C@H](O[C@H]3[C@@H](O)C[C@H](O[C@H]4CC[C@@]5(C)[C@H](CC[C@@H]6[C@@H]5C[C@@H](O)[C@]5(C)[C@@H](C7=CC(=O)OC7)CC[C@]65O)C4)O[C@@H]3C)O[C@@H]2C)C[C@H](O)[C@@H]1O : inactive
CC(C)[C@@H](N)C(=O)O : inactive
CN(Cc1ccccc1)Cc1ccccc1 : inactive
CCc1ccc(S(=O)(=O)O)cc1 : inactive
CCCCC(CC)CCC(CC(C)C)OS(=O)(=O)O (stereo not drawn) : inactive
CC1=CCC2CC1C2(C)C (stereo not drawn) : inactive
NCC(O)CC(=O)O (stereo not drawn) : inactive
CCOC(=O)c1c[nH]c2cc(OCC(C)C)c(OCC(C)C)cc2c1=O : active

* * *

- Tested on: DIV14
- method.notes: qHTS profiling for inhibitors of Plasmodium falciparum proliferation (AID 504749); note: nearly all actives have a fitted effect of over 60% in size
- protocol.conditions: P. falciparum in erythrocytes, SYBR Green DNA, 72 h; series mostly up to 28.7 µM
- Protocol: NIH National Institute of Allergy and Infectious Diseases [NIAID] NIH Chemical Genomics Center [NCGC] […] Because mature erythrocytes lack DNA, only Plasmodium-derived DNA is detected. NCGC Assay Protocol Summary: The SYBR Green viability assay was adapted from a method described previously (Plouffe et al., 2008). […] The following morning, fluorescence intensity at 485(14) nm excitation and 535(25) nm emission wavelengths was measured on an EnVision (Perkin Elmer) plate reader. […]
Inconclusive results are not listed. Calls of active or inactive are those of the source. Calls follow the shape of the dose curve; as a rule, active = well fitted inhibition curve with a large enough effect; inconclusive = small, poorly fitted or top-dose-only effect; inactive = flat fitted curve, though single readings scatter.
Classes used: YES = active, NO = inactive

NCC[C@H](O)C(=O)N[C@@H]1C[C@H](N)[C@@H](O[C@H]2O[C@H](CN)[C@@H](O)[C@H](O)[C@H]2O)[C@H](O)[C@H]1O[C@H]1O[C@H](CO)[C@@H](O)[C@H](N)[C@H]1O : NO
CCCCC[C@H](O)/C=C/[C@@H]1[C@H]2C/C(=C/CCCC(=O)O)O[C@H]2C[C@H]1O : NO
O=P(O)(O)OC[C@H](O)CO : NO
c1ccc2ccccc2c1 : NO
CN1C(=O)C[C@@H](C(=O)N[C@@H](Cc2cnc[nH]2)C(=O)N2CCC[C@H]2C(N)=O)NC1=O : NO
NCCO/C=C/[C@H](N)C(=O)O : NO
CCc1ncnc2cc(OC)c(OC)cc12 : NO
C=C(C)C1CC=C(C)CC1 (stereo not drawn) : NO
CCN(CC)CCCC(C)Nc1cc(/C=C/c2ccccc2Cl)nc2cc(Cl)ccc12 (stereo not drawn) : YES
CNC(=O)c1c(I)c(C(=O)NCC(=O)Nc2c(I)c(C(=O)O)c(I)c(C(=O)NCCO)c2I)c(I)c(N(C)C(C)=O)c1I : NO
Cc1cccc(Nc2ncccc2C(=O)O)c1C : NO
COc1ccc(/C=C/C(=O)OCCC(C)C)cc1 : NO
CC1=CC(=O)NS(=O)(=O)O1 : NO

* * *

- System: AS120
- method.notes: qHTS profiling for inhibitors of Plasmodium falciparum proliferation (AID 504749); note: nearly all actives have a fitted effect of over 60% in size
- protocol.conditions: P. falciparum in erythrocytes, SYBR Green DNA, 72 h; series mostly up to 28.7 µM
Records with an inconclusive call do not appear. Active and inactive are the calls of the source. Calls come from the whole dose curve; as a rule, active = well fitted inhibition curve with a large enough effect; inconclusive = small, poorly fitted or top-dose-only effect; inactive = flat fitted curve, though single readings scatter.
Classes used: class 1 = active, class 0 = inactive

CC[C@H]1OC(=O)[C@H](C)[C@@H](O[C@H]2C[C@@](C)(OC)[C@@H](O)[C@H](C)O2)[C@H](C)[C@@H](O[C@@H]2O[C@H](C)C[C@H](N(C)C)[C@H]2O)[C@](C)(O)C[C@@H](C)CN(C)[C@H](C)[C@@H](O)[C@]1(C)O : class 1
O=C(O)CCC/C=C\C[C@@H]1[C@@H](/C=C/[C@@H](O)COc2cccc(Cl)c2)[C@H](O)C[C@@H]1O : class 0
COc1ccc(C(=O)c2ccc(C)cc2)c(O)c1 : class 0
COc1ccc(/C=C/C(=O)O)cc1 : class 0
C[Si](C)(C)O[Si](C)(C)C : class 0
CCOc1ccc(S(=O)(=O)O)c2cccnc12 : class 0

* * *

- Tested on: Dd2
- method.notes: qHTS profiling for inhibitors of Plasmodium falciparum proliferation (AID 504749); note: nearly all actives have a fitted effect of over 60% in size
- protocol.conditions: P. falciparum in erythrocytes, SYBR Green DNA, 72 h; series mostly up to 28.7 µM
Inconclusive results are not listed. Active and inactive are the calls of the source. Calls come from the whole dose curve; as a rule, active = well fitted inhibition curve with a large enough effect; inconclusive = small, poorly fitted or top-dose-only effect; inactive = flat fitted curve, though single readings scatter.
Classes used: active, inactive

O=C(CCCN1CCN2CCCC2C1)c1ccc(F)cc1 (stereo not drawn) : active
CC(=O)Nc1ccc(OC(=O)c2ccccc2O)cc1 : inactive
CCCCCCCCCCCCOCCCN : inactive
COC(=O)c1ccccc1O : inactive
Cc1nc(NS(=O)(=O)c2ccc(N)cc2)nc(C)c1Br : inactive
C=CC(=O)O : inactive
O=C1[O][Bi][O]c2ccccc21 : inactive
CCCCCCCCCCCCCCCCCC(=O)OCC(C)O (stereo not drawn) : inactive

* * *

- System: DIV14
- method.notes: qHTS profiling for inhibitors of Plasmodium falciparum proliferation (AID 504749); note: nearly all actives have a fitted effect of over 60% in size; note: potency is the fitted concentration of half-maximal effect
- protocol.conditions: P. falciparum in erythrocytes, SYBR Green DNA, 72 h; series mostly up to 28.7 µM
Records with an inconclusive call do not appear. The source made the active and inactive calls. Calls follow the shape of the dose curve; as a rule, active = well fitted inhibition curve with a large enough effect; inconclusive = small, poorly fitted or top-dose-only effect; inactive = flat fitted curve, though single readings scatter.
readout.name: Potency

OC1OC[C@@H](O)[C@H](O)[C@@H]1O (some centres not stated) : inactive
C/C=C/C=C/C(=O)O : inactive
CCCCCCCCCCCCCCCCOCCOCCOCCOCCOCCOCCOCCOCCOCCOCCOCCOCCOCCOCCOCCOCCOCCOCCOCCOCCO : 13.5 µM (active)
COc1cc2c(cc1OC)[C@@H](Cc1cc(OC)c(OC)c(OC)c1)[N+](C)(CCCOC(=O)CC/C=C/CCC(=O)OCCC[N+]1(C)CCc3cc(OC)c(OC)cc3[C@H]1Cc1cc(OC)c(OC)c(OC)c1)CC2 (some centres not stated) : inactive
Oc1cc(O)cc(O)c1 : inactive
CC(C)CCC[C@@H](C)[C@H]1CC[C@H]2[C@@H]3CC=C4C[C@@H](O)CC[C@]4(C)[C@H]3CC[C@]12C : inactive
CCC(=O)c1ccc2c(c1)N(CCCN1CCN(CCO)CC1)c1ccccc1S2 : 9.53 µM (active)
